Provenance of the data: ChEMBL document CHEMBL3885861

Species on record: Rattus norvegicus
measurement protocol: Open TG-GATES - Regimen: Single
Type: toxicity, organism-based, Sprague-Dawley
Set-up: regimen Single, gender Male, age 6 weeks
reported conditions: in vivo, po, 0 mg/kg, 6 h, tissue Plasma, route gavage, dose level Control
Exercise: state measured ALT for each of the compounds provided.
Give bare numbers, in IU/L.

| compound | value unit | ALT |
| --- | --- | --- |
| CN1C(=O)OC(C)(C)C1=O | IU/L | 34.4 |
| Oc1ncnc2[nH]ncc12 | IU/L | 31.8 |
| C[C@]12CCC(=O)C=C1CC[C@@H]1[C@@H]2CC[C@@]2(C)[C@H]1CC[C@]2(C)O | IU/L | 41.8 |
| O=C(O)c1cccnc1 | IU/L | 37.8 |
| C[C@](N)(Cc1ccc(O)c(O)c1)C(=O)O | IU/L | 45.8 |

Field: ALT. Fill in for each record below.
1. CC(C)C(=O)Nc1ccc([N+](=O)[O-])c(C(F)(F)F)c1 [FLUTAMIDE]
2. Nc1nc(N)c2nc(-c3ccccc3)c(N)nc2n1

Solution:
1: 37.6; 2: 34.6

Hi, could you look up ALT for each item in my list?
1. CC(=N)S [THIOACETAMIDE]
2. CCN1CCCC1CNC(=O)c1cc(S(N)(=O)=O)ccc1OC (stereo unspecified) [SULPIRIDE]
3. CC(C)(S)[C@@H](N)C(=O)O
4. CCSCC[C@H](N)C(=O)O
5. O=C(N[C@H](CO)[C@H](O)c1ccc([N+](=O)[O-])cc1)C(Cl)Cl

Solution:
[30.2, 38.2, 34.4, 38.6, 38.8]

// each compound listed below needs its ALT
1. CCc1oc2ccccc2c1C(=O)c1cc(I)c(O)c(I)c1
2. CCC(C)(C)C(=O)O[C@H]1C[C@@H](C)C=C2C=C[C@H](C)[C@H](CC[C@@H]3C[C@@H](O)CC(=O)O3)[C@H]21
3. C#C[C@]1(O)CC[C@H]2[C@@H]3CCc4cc(O)ccc4[C@H]3CC[C@@]21C

Solution:
33
29
42

Problem: Need ALT, item `CC(=O)Oc1cc(C(C)C)c(OCCN(C)C)cc1C`
Solution: 40.2
